- TARGET: sigma receptor
- ASSAY DETAILS: Sigma receptor binding assay ([3H]DTG, guinea pig brain membrane homogenates)
- ASSAY CONDITIONS: displacement of [3H]DTG, guinea pig brain membranes
Where a name gives a salt, the structure may show the parent alone.
The label yes (1) is reserved for IC50 strictly under 100 nM; no (0) covers values equal to or above it.

For this compound, is IC50 lower than 100 nM? CCc1cccc(N(C)C(=N)Nc2cccc(Br)c2)c1 [Compd. No. 19 (Table I)]
yes (1)

Find out if reported IC50 for CSc1cccc(NC(=N)Nc2cccc3ccccc23)c1 [Compd. No. 47 (Table I)] is less than 100 nM
yes (1)

Problem: For the compound CCc1ccc(Cl)c(NC(=N)N(C)c2cccc(SC)c2)c1 [Compd. No. 61 (Table I), hydrochloride] , is IC50 under 100 nM?
no (0)

Field: below-cutoff. Rule: recorded IC50 strictly less than 100 nM. Subject: CCc1cccc(NC(=N)Nc2cc(C)ccc2Cl)c1 [Compd. No. 7 (Table I), hydrochloride]
yes (1)

Hi there! Is IC50 for CCc1cccc(NC(=N)Nc2cc(CC)ccc2F)c1 [Compd. No. 21 (Table I), hydrochloride] below 100 nM, do you know?
yes (1)

Determine whether this compound shows IC50 lower than 100 nM (ties excluded): CCc1cccc(NC(=N)Nc2cc(C(F)(F)F)ccc2Cl)c1 [Compd. No. 6 (Table I), hydrochloride]
yes (1)

In plain terms, does CCc1ccc(Cl)c(NC(=N)Nc2cccc3ccccc23)c1 [Compd. No. 44 (Table I), hydrochloride] come in under 100 nM for IC50?
yes (1)

Record Cc1ccc(Cl)c(NC(=N)Nc2cccc3cccnc23)c1 [Compd. No. 48 (Table I), hydrochloride] : is its IC50 strictly below 100 nM?
no (0)

is_below(IC50, 100 nM) for CCc1cccc(N(C)C(=N)Nc2cc(CC)ccc2Br)c1 [Compd. No. 22 (Table I), hydrochloride] ?
no (0)

Determine whether this compound shows IC50 lower than 100 nM (ties excluded): Cc1cccc(NC(=N)Nc2cccc3ccccc23)c1 [Compd. No. 38 (Table I)]
yes (1)

Please check: IC50 for Cc1ccc(Cl)c(N(C)C(=N)Nc2cccc3ccccc23)c1 [Compd. No. 55 (Table I), hydrochloride] , strictly under 100 nM or not?
no (0)

I'd appreciate it if you could check whether CCc1cccc(N(C)C(=N)Nc2cc(SC)ccc2Cl)c1 [Compd. No. 24 (Table I), hydrochloride] has IC50 smaller than 100 nM.
no (0)

Given CCc1cccc(NC(=N)Nc2cc(C(F)(F)F)ccc2F)c1 [Compound 5] , is recorded IC50 strictly lower than 100 nM?
yes (1)

Field: below-cutoff. Rule: recorded IC50 strictly less than 100 nM. Subject: CCc1ccc(Cl)c(N(C)C(=N)Nc2cccc3ccccc23)c1 [Compd. No. 57 (Table I), hydrochloride]
no (0)

Field: below-cutoff. Rule: recorded IC50 strictly less than 100 nM. Subject: CN(C(=N)Nc1cc(Br)ccc1Br)c1cccc(C(F)(F)F)c1 [Compd. No. 71 (Table I), hydrochloride]
no (0)

In plain terms, does CCc1cccc(N(C)C(=N)Nc2cc(CC)ccc2Cl)c1 [Compd. No. 17 (Table I), hydrochloride] come in under 100 nM for IC50?
no (0)
